All figures here come from patent US8247211B2.

Form field: MIC Enterococccus faecalis (GC 2691) (one value per entry).
tested on: Enterococcus sp.; assay: In vitro antibacterial evaluation: minimum inhibitory concentration (MIC), broth dilution method; format: cell-based; conditions: broth dilution, 5×10^5 CFU/mL, 18 hours at 35° C.
Text: […]
Field format: number, assumed µg/mL, no unit text.

[[record]]
molecule = "CC(c1ccccc1)C1NC(=O)CNC(=O)C(CO)NC(=O)C(C(O)C2CNC(=N)N2C2OC(CO)C(O)C(O)C2O)NC(=O)C(C(O)C2CNC(=N)N2)NC(=O)C(Cc2ccc(OC3OC(CO)C(OC4OC5COC(CC6CCN(C(=O)OCc7ccccc7)CC6)OC5C(O)C4O)C(O)C3O)cc2)NC1=O (stereo not shown)"
unit_info = "µg/mL"
readout_number = 4

[[record]]
molecule = "CCCCOC(=O)CCC1OCC2OC(OC3C(CO)OC(Oc4ccc(CC5NC(=O)C(C(C)c6ccccc6)NC(=O)CNC(=O)C(CO)NC(=O)C(C(O)C6CNC(=N)N6C6OC(CO)C(O)C(O)C6O)NC(=O)C(C(O)C6CNC(=N)N6)NC5=O)cc4)C(O)C3O)C(O)C(O)C2O1 (stereo not shown)"
unit_info = "µg/mL"
readout_number = 4

[[record]]
molecule = "COc1ccc(CC2OCC3OC(OC4C(CO)OC(Oc5ccc(CC6NC(=O)C(C(C)c7ccccc7)NC(=O)CNC(=O)C(CO)NC(=O)C(C(O)C7CNC(=N)N7C7OC(CO)C(O)C(O)C7O)NC(=O)C(C(O)C7CNC(=N)N7)NC6=O)cc5)C(O)C4O)C(O)C(O)C3O2)cc1 (stereo not shown)"
unit_info = "µg/mL"
readout_number = 8

[[record]]
molecule = "CC(c1ccccc1)C1NC(=O)CNC(=O)C(CO)NC(=O)C(C(O)C2CNC(=N)N2C2OC(CO)C(O)C(O)C2O)NC(=O)C(C(O)C2CNC(=N)N2)NC(=O)C(Cc2ccc(OC3OC(CO)C(OC4OC5COC(CC6CCCCC6)OC5C(O)C4O)C(O)C3O)cc2)NC1=O (stereo not shown)"
unit_info = "µg/mL"
readout_number = 2

[[record]]
molecule = "COC1CCC2(C)C(CCC3C2CCC2(C)C(C(C)CCC4OCC5OC(OC6C(CO)OC(Oc7ccc(CC8NC(=O)C(C(C)c9ccccc9)NC(=O)CNC(=O)C(CO)NC(=O)C(C(O)C9CNC(=N)N9C9OC(CO)C(O)C(O)C9O)NC(=O)C(C(O)C9CNC(=N)N9)NC8=O)cc7)C(O)C6O)C(O)C(O)C5O4)CCC32)C1 (stereo not shown)"
unit_info = "µg/mL"
readout_number = 32


Now consider a different molecule.
Recorded MIC Enterococccus faecalis (GC 2691) (molecule CC(C)=CCCC(C)CC1OCC2OC(OC3C(CO)OC(Oc4ccc(CC5NC(=O)C(C(C)c6ccccc6)NC(=O)CNC(=O)C(CO)NC(=O)C(C(O)C6CNC(=N)N6C6OC(CO)C(O)C(O)C6O)NC(=O)C(C(O)C6CNC(=N)N6)NC5=O)cc4)C(O)C3O)C(O)C(O)C2O1 (stereo not shown) ): 8
